Test system: SK-MEL-2
Test: NCI tumour cell line growth inhibition, 48 h
The source made the active and inactive calls. Cut-off read from the data, not from the text of the source: active = GI50 up to about 1.1 µM and inactive = higher. Numbered stars: 1 amine (or outer) side, 2 acyl side, 3 side chain; on linkers, the order of the positions; unused ones are H or OH. Bridge positions count the residues as written; N and C are the ends. Square brackets hold non-standard residues; d marks the D form. Peptide text beside a SMILES is read from it. I, II: the chains in the order shown. Actinocin(9to1) = Cc1c2oc3c(C)ccc(C(=O)[*:1])c3nc-2c(C(=O)[*:2])c(N)c1=O; NMeH = CN[CH](Cc1c[nH]cn1)C(=O)O; Sar = CNCC(=O)O
VALUE_KIND: GI50

Below: 5 compounds and their reported GI50.
COc1cc(/C=C2\C(=O)N(C(=O)Cc3ccccc3)N=C2C)ccc1O    > 100 µM (inactive)
Cc1c2oc3c(C)ccc(C(=O)NC4C(=O)NC(C(C)C)C(=O)N5CCCC5C(=O)N(C)CC(=O)N(C)C(Cc5cnc[nH]5)C(=O)OC4C)c3nc-2c(C(=O)NC2C(=O)NC(C(C)C)C(=O)N3CCCC3C(=O)N(C)CC(=O)N(C)C(Cc3cnc[nH]3)C(=O)OC2C)c(N)c1=O (configuration not stated) (I: TVP[Sar][NMeH] / II: TVP[Sar][NMeH]; ester I:1-I:C, II:1-II:C; linker I:N-II:N via Actinocin(9to1); configuration not given here)    26.3 µM (inactive)
N#CCC(=O)Nc1cccc(C(F)(F)F)c1    > 100 µM (inactive)
CC(=O)c1ccccc1NC(=O)C(=O)C(C(=O)c1ccccc1-c1ccccc1)C1OC(=O)c2ccccc21 (configuration not stated)    17.2 µM (inactive)
Nc1ccc(O)c2c1C(=O)c1c(N)ccc(O)c1C2=O    > 100 µM (inactive)

Value (GI50, SK-MEL-2) for record "CC(C)(C)c1cc(C(=O)/C=C/c2ccc(O)c(O)c2O)cc(C(C)(C)C)c1O" = 4.41 µM (inactive)

Value (GI50, SK-MEL-2) for record O=C(CCl)NC(Cc1ccc(F)cc1)C(=O)O (configuration not stated) = > 100 µM (inactive)
